- tested.on: Ubiquitin carboxyl-terminal hydrolase isozyme L3 (Homo sapiens, UniProt P15374)
- Sequence (P15374 whole entry): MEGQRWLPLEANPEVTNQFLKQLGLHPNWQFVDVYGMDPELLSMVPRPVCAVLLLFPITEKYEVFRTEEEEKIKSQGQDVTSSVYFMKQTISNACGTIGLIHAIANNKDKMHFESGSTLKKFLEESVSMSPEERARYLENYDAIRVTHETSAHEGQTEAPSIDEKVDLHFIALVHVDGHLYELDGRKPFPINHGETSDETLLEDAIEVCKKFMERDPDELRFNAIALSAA
assay.metric: IC50

Ask: For the compound COc1ccc(C2C(C(=O)c3cccs3)=C(O)C(=O)N2c2nncs2)cc1 (stereo unspecified) , what IC50 is on record?
Result: 154 µM
